# System: acutely dissociated and purified rat OPCs
# Assay Comment: Acute OL differentiation assay (MBP expression/cell, immunofluorescent image quantification)
# Assay type: cell-based
# Conditions Used: Rattus norvegicus, test compound at 2 uM; MBP expression relative to quetiapine; NCC library screen, sheet "All OLga data"; read-out: 2 uM (% Quet)
activation at 2 µM of -10% or higher: 1.0. Under -10%: 0.0.

Is it the case that COC(=O)[C@H](c1ccccc1Cl)N1CCc2sccc2C1 [Clopidogrel] has activation at 2 µM reaching or exceeding -10%? 0.0

Does O=c1[nH]c(=O)n([C@H]2C[C@H](O)[C@@H](CO)O2)cc1F [Floxuridine] have a reported activation at 2 µM of at least -10%? 0.0

Hi, just wondering whether CC[C@H](C)C(=O)O[C@H]1C[C@@H](C)C=C2C=C[C@H](C)[C@H](CC[C@@H]3C[C@@H](O)CC(=O)O3)[C@H]21 [Lovastatin] shows activation at 2 µM of -10% or higher. 0.0

# bool: activation at 2 µM of CC(C)NCC(O)COc1cccc2ccccc12 (stereo not shown) [Propranolol] >= -10% 0.0

Is the recorded value of activation at 2 µM equal to or greater than -10% for this molecule? CC(N)C12CC3CC(CC(C3)C1)C2 (stereo not shown) [Rimantadine] 0.0

In plain terms: is recorded activation at 2 µM at least -10% for CCOC(=O)c1cncn1[C@H](C)c1ccccc1 [Etomidate] ? 1.0

Quick check: does CO/N=C(\C(=O)N[C@@H]1C(=O)N2C(C(=O)O)=C(COC(C)=O)CS[C@H]12)c1csc(N)n1 [Cefotaxime] have activation at 2 µM greater than or equal to -10%? 1.0
